- experimental target: 11-beta-HSD2 (Homo sapiens)
- assay notes: Inhibition of human microsomal 11beta-HSD2 assessed as inhibition of […] by cell-based assay
recorded endpoint: IC50 (µM)
Unit µM implied. Number only.

[Q] Tell me its IC50 given `Cn1c(-c2ccccc2C(F)(F)F)nnc1C12CCC(c3noc(C(C)(F)F)n3)(CC1)CC2` as the entry.
[A] 3.1

----------
Here the recorded concentration at 24 h is given for each entry.
- assay notes: Plasma concentration in spontaneously hypertensive rat model at 10 mg/kg measured after 24 hrs
- Assay type: ADME, organism-based
- Set-up: dose 10 mg/kg
Unit µM implied. Number only.

[Q] Tell me its concentration at 24 h given `CCS(=O)(=O)CC12CCC(c3nnc(-c4ccccc4C(F)(F)F)n3C)(CC1)CC2` as the entry.
[A] 10.2
